Taken from ChEMBL document CHEMBL4819013.

tested on: Giardia intestinalis; assay: Giardicidal activity against nitazoxanide-resistant Giardia intestinalis incubated for 48 hrs by hemocytometric counting method; type: functional, organism-based; conditions: Giardia duodenalis
OUTCOME_MEASURE: log10 of IC50 (log10 of the value in nM)
Scale: log10; quantity: IC50; unit before log: nM

// below: answered compounds
CCOc1ccc2nc(SCCN3CCOCC3)[nH]c2c1 = 1.81
COc1ccc2[nH]c([S+]([O-])Cc3ncc(C)c(OC)c3C)nc2n1 (stereo unspecified) = 1.69
CCCSc1ccc2[nH]c(NC(=O)OC)nc2c1 = 2.44
CCOC(=O)Nc1nc2ccccc2[nH]1 = 1.79
CC(=O)Oc1ccccc1C(=O)Nc1ncc([N+](=O)[O-])s1 [NITAZOXANIDE] = 3.29

I looked up CC(C)Oc1ccc2c(=O)c(-c3ccccc3)coc2c1 and its log10 of IC50 for Giardia intestinalis was 1.15
